Quick list: melting point per entry.

The value of melting point measured for the molecule CC1(C)CCC(C)(C)c2cc(N(CCCCO)C(=O)Nc3cccc(C(=O)O)c3)ccc21 turned out to be 124 to 125 °C

The value of melting point measured for the molecule CC(C)(COc1ccc(-n2cc(C(=O)O)cn2)cc1C#N)C(=O)O turned out to be 230 to 233 °C

###

measuredMetric: melting point

Solved cases below.
Cc1cc(C(C)N(O)C(N)=O)ccc1OC(C)c1ccccc1 (stereo unspecified)
133 to 135 °C
O=C(CCCCCOc1ccc([N+](=O)[O-])cc1)OCCOCCOC(=O)CCCCCOc1ccc([N+](=O)[O-])cc1
60 to 62 °C
Cc1cnc2c(c1)cc1c3c(cc([N+](=O)[O-])cc32)C(=O)OC1=O
261 to 262 °C

The value of melting point measured for the molecule O=C(O)CSCCCCCCn1nc(-c2ccccc2)c(-c2ccccc2)c1-c1ccccc1 turned out to be 92 to 97 °C

The value of melting point measured for the molecule Cc1cc2n(C)c(=O)c3cnc4c(cnn4C)c3n2n1 turned out to be 178 to 180 °C

The value of melting point measured for the molecule Cn1nc(C(F)F)c(C=O)c1F turned out to be 68 °C

The value of melting point measured for the molecule OCC(CCNC1CCC(c2ccc(OCc3ccccc3)cc2)CC1)c1ccccc1 (racemic) turned out to be 140 to 142 °C

The value of melting point measured for the molecule CC(=O)NC(C)Cc1cc(C)c(C)cc1CC(=O)O (stereo unspecified) turned out to be 67 to 69 °C

The value of melting point measured for the molecule C=C1CSC2C(NC(=O)COc3ccccc3)C(=O)N2C1C(=O)O (stereo unspecified) turned out to be 185 to 188 °C

The value of melting point measured for the molecule Oc1ccc(C2(O)CCC3CN(Cc4ccccc4)CCC3C2)cc1 (stereo unspecified) turned out to be 108 to 109 °C

The value of melting point measured for the molecule COCCSc1[nH]nc(-c2ccc(Cl)cc2)c1-c1ccncc1 turned out to be 189 to 190 °C

###

measuredMetric: melting point

COc1cc(C)nc(NC(=O)NS(=O)(=O)c2ccc(N=[N+]=[N-])cc2)n1
192 °C
O=S(=O)(c1ccc(O)cc1)c1ccc(O)c2ccccc12
198 to 199 °C
O=C(Nc1ccccc1)Nc1nc(=O)n(S(=O)(=O)c2ccccc2)cc1F
210 to 214 °C
NC(=O)N1CCN(CC(=O)N2CCOCC2)CC1
165 °C
CCn1c2ccccc2c2c3c(ccc21)c(C=O)cn3C
144 to 146 °C
COc1ccc(OC)c2c1CC1OC1C2 (centres undefined)
130 to 132 °C
Cc1cnccc1C#N
45 to 47 °C
CCOC(=O)Nc1c(F)cc(Cl)c2c1OC(C)(C)C2
114 to 115 °C

The value of melting point measured for the compound COC(=O)/C(=C/c1cccc([N+](=O)[O-])c1)CC(=O)O turned out to be 160 to 161 °C

###

measuredMetric: melting point

Cc1nc(N2CCc3ccccc3CC2)c(C#N)c(=O)n1CC(F)(F)F
108 to 110 °C
O=C(O)CCCCN1C(=O)NC(=O)C1(c1ccccc1)c1ccccc1
207 °C

The value of melting point measured for the molecule O=C(c1cccs1)c1cnn2c(-c3cccc(-c4ccc(CN5CCOCC5)cc4)c3)ccnc12 turned out to be 175 to 178 °C

The value of melting point measured for the molecule COC(=O)c1cc(C=O)ccc1OCc1nc(-c2ccco2)oc1C turned out to be 121 to 122 °C

The value of melting point measured for the molecule CSC(=S)N1CCN(Cc2ccccc2N(C)C)CC1 turned out to be 90 to 91 °C

The value of melting point measured for the molecule O=C(CCCCc1cc(O)c(O)c([N+](=O)[O-])c1)NC12CC3CC(CC(C3)C1)C2 turned out to be 157 to 160 °C

The value of melting point measured for the molecule CN1C(=O)CC[C@]2(C)c3ccc(-c4ccc(NC(=O)C(C)(C)C)nc4)cc3CC[C@@H]12 turned out to be 248 to 250 °C

The value of melting point measured for the molecule O=C(O)C(Cc1cccc(F)c1)c1ccc(F)cc1 (centres undefined) turned out to be 92 to 94 °C

The value of melting point measured for the molecule CNC(=O)N(O)C(C)c1ccc(F)cc1F (centres undefined) turned out to be 125 to 134 °C
